- Test system: 616215-338-R-J1-PDC tumor spheroids, viability
- Protocol Summary: Anticancer human tumor 616215-338-R-J1-PDC patient-derived colon adenocarcinoma cell line growth inhibition [GQUAD]
- Particulars: second compound 10 µM; first compound 3.16 µM; stronger effect = lower value; spheroids with HUVEC and MSC
So I've got a bunch of compounds here, and I need their viability, T/C values.

Illustrative cases are given below, each with its answer.
COc1cc(C2c3cc4c(cc3C(OC3OC5COC(C)OC5C(O)C3O)C3COC(=O)C23)OCO4)cc(OC)c1O (stereo not given) + CN(C)c1ccc(Nc2c3ccc(NC(=O)CCN4CCCC4)cc3nc3cc(NC(=O)CCN4CCCC4)ccc23)cc1
25.9%
O=C(NO)c1cnc(N2CCN(S(=O)(=O)c3ccc4ccccc4c3)CC2)nc1 + CN(C)c1ccc(Nc2c3ccc(NC(=O)CCN4CCCC4)cc3nc3cc(NC(=O)CCN4CCCC4)ccc23)cc1
0.16%
C#Cc1c(F)ccc2cc(O)cc(-c3ncc4c(N5CC6CCC(C5)N6)nc(OCC56CCCN5CC(F)C6)nc4c3F)c12 (stereo not given) + Cc1cnc(CNC(=O)c2c(=O)c3ccc(N4CCCN(C)CC4)nc3n3c2sc2ccccc23)cn1
14.8%
O=C(c1cc(Cc2n[nH]c(=O)c3ccccc23)ccc1F)N1CCN(C(=O)C2CC2)CC1 + Cc1[nH]c2ccc(F)cc2c1-c1nc2c3cccnc3c3ncccc3c2[nH]1
91.3%

What value of measured viability, T/C is listed for C=CC(=O)N1CCN(c2nc(=O)n(-c3c(C)ccnc3C(C)C)c3nc(-c4c(O)cccc4F)c(F)cc23)C(C)C1 (stereo not given) + Cc1[nH]c2ccc(F)cc2c1-c1nc2c3cccnc3c3ncccc3c2[nH]1 ? 86.2%

---

- System: 616215-338-R-J1-PDC tumor spheroids, viability
- Protocol Summary: Anticancer human tumor 616215-338-R-J1-PDC cell line growth inhibition [GQUAD];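 note: spheroids exposed to agents for 7 days before readout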
- Particulars: curve of first compound; second compound 1 µM; spheroids with HUVEC and MSC
Quantity: IC50

Count: 3. Required value per item: IC50.
1. C#Cc1c(F)ccc2cc(O)cc(-c3ncc4c(N5CC6CCC(C5)N6)nc(OCC56CCCN5CC(F)C6)nc4c3F)c12 (stereo not drawn) + Cc1cnc(CNC(=O)c2c(=O)c3ccc(N4CCCN(C)CC4)nc3n3c2sc2ccccc23)cn1
2. COc1cccc2c1C(=O)c1c(O)c3c(c(O)c1C2=O)CC(O)(C(=O)CO)CC3OC1CC(N)C(O)C(C)O1 (stereo not drawn) + Cc1cnc(CNC(=O)c2c(=O)c3ccc(N4CCCN(C)CC4)nc3n3c2sc2ccccc23)cn1
3. CCCS(=O)(=O)Nc1ccc(F)c(C(=O)c2c[nH]c3ncc(-c4ccc(Cl)cc4)cc23)c1F + Cc1cnc(CNC(=O)c2c(=O)c3ccc(N4CCCN(C)CC4)nc3n3c2sc2ccccc23)cn1

1. < 31.6 nM
2. < 31.6 nM
3. < 31.6 nM

---

- System: 616215-338-R-J1-PDC tumor spheroids, viability
- Protocol Summary: Anticancer human tumor 616215-338-R-J1-PDC cell line growth inhibition [GQUAD];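 note: spheroids exposed to agents for 7 days before readout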
- Particulars: curve of first compound; second compound 10 µM; spheroids with HUVEC and MSC
So I've got a bunch of molecules here, and I need their pIC50 values.
One number for each entry, as −log10 of the molar value.

COc1cccc2c1C(=O)c1c(O)c3c(c(O)c1C2=O)CC(O)(C(=O)CO)CC3OC1CC(N)C(O)C(C)O1 (stereo not given) + CN(C)c1ccc(Nc2c3ccc(NC(=O)CCN4CCCC4)cc3nc3cc(NC(=O)CCN4CCCC4)ccc23)cc1
6.46

What value of measured pIC50 is listed for CC1COCCN1c1cc(C2(S(C)(=N)=O)CC2)nc(-c2ccnc3[nH]ccc23)n1 (stereo not given) + Cc1[nH]c2ccc(F)cc2c1-c1nc2c3cccnc3c3ncccc3c2[nH]1 ? 5.24

---

- Test system: 616215-338-R-J1-PDC tumor spheroids, viability
- Protocol Summary: Anticancer human tumor 616215-338-R-J1-PDC cell line growth inhibition [GQUAD];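 note: spheroids exposed to agents for 7 days before readout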
- Particulars: curve of first compound; second compound 0.316 µM; spheroids with HUVEC and MSC
pIC50: −log10 of the molar value.
Quantity: pIC50

Illustrative cases are given below, each with its answer.
O=C(c1cc(Cc2n[nH]c(=O)c3ccccc23)ccc1F)N1CCN(C(=O)C2CC2)CC1 + Cc1cnc(CNC(=O)c2c(=O)c3ccc(N4CCCN(C)CC4)nc3n3c2sc2ccccc23)cn1
> 7.50
C#Cc1c(F)ccc2cc(O)cc(-c3ncc4c(N5CC6CCC(C5)N6)nc(OCC56CCCN5CC(F)C6)nc4c3F)c12 (stereo not given) + Cc1[nH]c2ccc(F)cc2c1-c1nc2c3cccnc3c3ncccc3c2[nH]1
< 5.00
C#Cc1c(F)ccc2cc(O)cc(-c3ncc4c(N5CC6CCC(C5)N6)nc(OCC56CCCN5CC(F)C6)nc4c3F)c12 (stereo not given) + CN(C)c1ccc(Nc2c3ccc(NC(=O)CCN4CCCC4)cc3nc3cc(NC(=O)CCN4CCCC4)ccc23)cc1
< 5.00
O=c1[nH]cc(F)c(=O)[nH]1 + CN(C)c1ccc(Nc2c3ccc(NC(=O)CCN4CCCC4)cc3nc3cc(NC(=O)CCN4CCCC4)ccc23)cc1
6.34

Next compound, pIC50 to be filled in.
What value of measured pIC50 is listed for CC(C)(O)C1CCC(Nc2ccc3ncc(-c4cccc(C(F)(F)F)c4)n3n2)CC1 (stereo not given) + Cc1cnc(CNC(=O)c2c(=O)c3ccc(N4CCCN(C)CC4)nc3n3c2sc2ccccc23)cn1 ? > 7.50

---

- Test system: 616215-338-R-J1-PDC tumor spheroids, viability
- Protocol Summary: Anticancer human tumor 616215-338-R-J1-PDC cell line growth inhibition [GQUAD];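 note: spheroids exposed to agents for 7 days before readout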;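 for viability, T/C: percent viability relative to DMSO vehicle control wells taken as 100%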
- Particulars: second compound 0.0316 µM; first compound 1 µM; stronger effect = lower value; spheroids with HUVEC and MSC
So I've got a bunch of compounds here, and I need their viability, T/C values.
Numbers only, in %.

CC(=O)O[C@H]1C(=O)[C@@]2(C)[C@H]([C@H](OC(=O)c3ccccc3)[C@]3(O)C[C@H](OC(=O)[C@H](O)[C@@H](NC(=O)c4ccccc4)c4ccccc4)C(C)=C1C3(C)C)[C@]1(OC(C)=O)CO[C@@H]1C[C@@H]2O + CN(C)c1ccc(Nc2c3ccc(NC(=O)CCN4CCCC4)cc3nc3cc(NC(=O)CCN4CCCC4)ccc23)cc1
14.6

Count: 4. Required value per item: viability, T/C.
1. COc1ccc([C@@H](O)c2cc(-c3ncnc4cc(N5CCOCC5)ccc34)c(F)cc2Cl)nn1 + Cc1[nH]c2ccc(F)cc2c1-c1nc2c3cccnc3c3ncccc3c2[nH]1
2. C=CCn1c(=O)c2cnc(Nc3ccc(N4CCN(C)CC4)cc3)nc2n1-c1cccc(C(C)(C)O)n1 + Cc1[nH]c2ccc(F)cc2c1-c1nc2c3cccnc3c3ncccc3c2[nH]1
3. CC(C)(O)C1CCC(Nc2ccc3ncc(-c4cccc(C(F)(F)F)c4)n3n2)CC1 (stereo not given) + Cc1[nH]c2ccc(F)cc2c1-c1nc2c3cccnc3c3ncccc3c2[nH]1
4. O=c1[nH]cc(F)c(=O)[nH]1 + CN(C)c1ccc(Nc2c3ccc(NC(=O)CCN4CCCC4)cc3nc3cc(NC(=O)CCN4CCCC4)ccc23)cc1

1: 105; 2: 25.4; 3: 11.2; 4: 39.8

---

- System: 616215-338-R-J1-PDC tumor spheroids, viability
- Protocol Summary: Anticancer human tumor 616215-338-R-J1-PDC cell line growth inhibition [GQUAD];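 note: spheroids exposed to agents for 7 days before readout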
- Particulars: curve of first compound; second compound 0.316 µM; spheroids with HUVEC and MSC
Quantity: pIC50
Give bare numbers, as −log10 of the molar value.

C=CC(=O)N1CCN(c2nc(=O)n(-c3c(C)ccnc3C(C)C)c3nc(-c4c(O)cccc4F)c(F)cc23)C(C)C1 (stereo not given) + Cc1cnc(CNC(=O)c2c(=O)c3ccc(N4CCCN(C)CC4)nc3n3c2sc2ccccc23)cn1
6.03
CC1COCCN1c1cc(C2(O)CC3CCC(C2)O3)c2cnn(-c3ccn[nH]3)c2n1 (stereo not given) + Cc1[nH]c2ccc(F)cc2c1-c1nc2c3cccnc3c3ncccc3c2[nH]1
6.63

Next compound, pIC50 to be filled in.
What value of measured pIC50 is listed for CC[C@@]1(O)C(=O)OCc2c1cc1n(c2=O)Cc2cc3c(CN(C)C)c(O)ccc3nc2-1 + CN(C)c1ccc(Nc2c3ccc(NC(=O)CCN4CCCC4)cc3nc3cc(NC(=O)CCN4CCCC4)ccc23)cc1 ? 6.64

---

- Test system: 616215-338-R-J1-PDC tumor spheroids, viability
- Protocol Summary: Anticancer human tumor 616215-338-R-J1-PDC cell line growth inhibition [GQUAD];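 note: spheroids exposed to agents for 7 days before readout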
- Particulars: curve of first compound; second compound 10 µM; spheroids with HUVEC and MSC
Flag rule - IC50 less than 3000 nM flags met; the remaining entries get not met.

CCCS(=O)(=O)Nc1ccc(F)c(C(=O)c2c[nH]c3ncc(-c4ccc(Cl)cc4)cc23)c1F + CN(C)c1ccc(Nc2c3ccc(NC(=O)CCN4CCCC4)cc3nc3cc(NC(=O)CCN4CCCC4)ccc23)cc1
not met
Cc1cccc(N(C)C(=O)C2C(O)CCN2c2nc(C)cc(C(F)(F)F)c2C#N)c1 (stereo unspecified) + CN(C)c1ccc(Nc2c3ccc(NC(=O)CCN4CCCC4)cc3nc3cc(NC(=O)CCN4CCCC4)ccc23)cc1
not met
O=c1[nH]cc(F)c(=O)[nH]1 + CN(C)c1ccc(Nc2c3ccc(NC(=O)CCN4CCCC4)cc3nc3cc(NC(=O)CCN4CCCC4)ccc23)cc1
met
O=c1[nH]cc(F)c(=O)[nH]1 + Cc1cnc(CNC(=O)c2c(=O)c3ccc(N4CCCN(C)CC4)nc3n3c2sc2ccccc23)cn1
met
C=CC(=O)N1CCN(c2nc(=O)n(-c3c(C)ccnc3C(C)C)c3nc(-c4c(O)cccc4F)c(F)cc23)C(C)C1 (stereo unspecified) + Cc1[nH]c2ccc(F)cc2c1-c1nc2c3cccnc3c3ncccc3c2[nH]1
not met

Report whether reported IC50 is lower than 3000 nM (strictly) for COc1cccc2c1C(=O)c1c(O)c3c(c(O)c1C2=O)CC(O)(C(=O)CO)CC3OC1CC(N)C(O)C(C)O1 (stereo unspecified) + Cc1[nH]c2ccc(F)cc2c1-c1nc2c3cccnc3c3ncccc3c2[nH]1 met

Follow-up item: COc1cc(C2c3cc4c(cc3C(OC3OC5COC(C)OC5C(O)C3O)C3COC(=O)C23)OCO4)cc(OC)c1O (stereo unspecified) + CN(C)c1ccc(Nc2c3ccc(NC(=O)CCN4CCCC4)cc3nc3cc(NC(=O)CCN4CCCC4)ccc23)cc1 met

Follow-up item: CC1COCCN1c1cc(-c2ccnn2C)c2ccnc(-c3ccn[nH]3)c2n1 (stereo unspecified) + Cc1[nH]c2ccc(F)cc2c1-c1nc2c3cccnc3c3ncccc3c2[nH]1 met

Follow-up item: CC(=O)O[C@H]1C(=O)[C@@]2(C)[C@H]([C@H](OC(=O)c3ccccc3)[C@]3(O)C[C@H](OC(=O)[C@H](O)[C@@H](NC(=O)c4ccccc4)c4ccccc4)C(C)=C1C3(C)C)[C@]1(OC(C)=O)CO[C@@H]1C[C@@H]2O + Cc1[nH]c2ccc(F)cc2c1-c1nc2c3cccnc3c3ncccc3c2[nH]1 met
